# Test system: wild type soybean
# Assay info: Greenhouse postemergence test of ALS-inhibiting herbicides, wild type soybean
# Assay type: in vivo
# Conditions used: 8.75 g ai/ha postemergence at V2, scored 14 days after application
Assign Soybean response (percent phytotoxicity), Wild type to each entry below.
Answer format: number, then unit.

Input: Entry COc1nc(C)nc(N(C)C(=O)NS(=O)(=O)c2ccccc2C(=O)O)n1 [Tribenuron] : reported Soybean response (percent phytotoxicity), Wild type = ?
Output: 70%

Input: Record request: Soybean response (percent phytotoxicity), Wild type value, item CCS(=O)(=O)c1cccnc1S(=O)(=O)NC(=O)Nc1nc(OC)cc(OC)n1 [Rimsulfuron]
Output: 10%

Input: Look at this molecule and give its reported Soybean response (percent phytotoxicity), Wild type. COc1cc(Cl)nc(NC(=O)NS(=O)(=O)c2ccccc2C(=O)O)n1 [Chlorimuron]
Output: 0%

Input: # input molecule: COc1nc(C)nc(NC(=O)NS(=O)(=O)c2ccsc2C(=O)O)n1 [Thifensulfuron] ; wanted: its Soybean response (percent phytotoxicity), Wild type
Output: 10%

Input: What does the record list as Soybean response (percent phytotoxicity), Wild type for Cc1cc(C)nc(NC(=O)NS(=O)(=O)c2ccccc2C(=O)O)n1 [Sulfometuron] ?
Output: 95%

Input: Given the molecule CCOc1nc(F)cc2nc(S(=O)(=O)Nc3c(Cl)cccc3C(=O)OC)nn12 [Cloransulam methyl] , what is its reported Soybean response (percent phytotoxicity), Wild type?
Output: 0%

Input: Item under review: CC(C)C1(C)N=C(c2ncccc2C(=O)O)NC1=O (stereo not shown) [Imazapyr] . Reported Soybean response (percent phytotoxicity), Wild type?
Output: 10%

====

Exercise: for every item that follows, state its recorded Avg response (% phytotoxicity), Trait Als1 + Als2.
# Tested on: soybean having both the Als1 and Als2 mutations
# Assay info: Greenhouse postemergence test of ALS-inhibiting herbicides and isobole analysis, soybean with Als1 and Als2 mutations
# Type: in vivo
# Conditions used: 35 g ai/ha, Table 2
Respond numerically; units are % and should not be typed.

Input: Find Avg response (% phytotoxicity), Trait Als1 + Als2 (soybean having both the Als1 and Als2 mutations) for the entry CC(C)C1(C)N=C(c2ncccc2C(=O)O)NC1=O (stereo not drawn)
Output: 0

Input: What measured Avg response (% phytotoxicity), Trait Als1 + Als2 is associated with COc1nc(C)nc(N(C)C(=O)NS(=O)(=O)c2ccccc2C(=O)O)n1 on soybean having both the Als1 and Als2 mutations?
Output: 0

Input: For the record CCS(=O)(=O)c1cccnc1S(=O)(=O)NC(=O)Nc1nc(OC)cc(OC)n1 , what value of Avg response (% phytotoxicity), Trait Als1 + Als2 is listed for soybean having both the Als1 and Als2 mutations?
Output: 0

====

# Test system: soybean having both the Als1 and Als2 mutations
# Assay info: Greenhouse postemergence test of ALS-inhibiting herbicides and isobole analysis, soybean with Als1 and Als2 mutations
# Format: in vivo
# Conditions used: 280 g ai/ha postemergence at V2, scored 14 days after application
# Method: Soybean lines having wild type als1 & 2 genes, the Als1 mutation, the Als2 mutation, or both the Als1 and Als2 mutations were evaluated for their response to various herbicides. […] The test was evaluated by visually scoring plant phenotype 14 days after the herbicides were applied. […] Soybean response was recorded on a zero to 100 visual scale in which zero is no phytotoxic response and 100 is plant death fourteen days after the herbicides were applied. […]
Answer each item with its documented Soybean response (percent phytotoxicity), Als1 + Als2.
The reply should be a number in %, with the unit left off.

Input: Which Soybean response (percent phytotoxicity), Als1 + Als2 reading was recorded for the molecule COc1nn(C(=O)NS(=O)(=O)c2ccccc2OC(F)(F)F)c(=O)n1C [Flucarbazone] ?
Output: 0

Input: Data request, read-out Soybean response (percent phytotoxicity), Als1 + Als2, for COc1cc(OC)nc(NC(=O)NS(=O)(=O)c2ncccc2C(=O)N(C)C)n1 [Nicosulfuron]
Output: 5

Input: Give the measured Soybean response (percent phytotoxicity), Als1 + Als2 of CCc1cnc(C2=NC(C)(C(C)C)C(=O)N2)c(C(=O)O)c1 (stereo not shown) [Imazethapyr] .
Output: 5

Input: Name the recorded Soybean response (percent phytotoxicity), Als1 + Als2 for COc1cc(OC)nc(Sc2cccc(Cl)c2C(=O)O)n1 [Pyrithiobac sodium] .
Output: 45
